Biological target: PBP B (Mycobacterium abscessus, UniProt B1MP31)
Sequence (B1MP31 entry or part of it): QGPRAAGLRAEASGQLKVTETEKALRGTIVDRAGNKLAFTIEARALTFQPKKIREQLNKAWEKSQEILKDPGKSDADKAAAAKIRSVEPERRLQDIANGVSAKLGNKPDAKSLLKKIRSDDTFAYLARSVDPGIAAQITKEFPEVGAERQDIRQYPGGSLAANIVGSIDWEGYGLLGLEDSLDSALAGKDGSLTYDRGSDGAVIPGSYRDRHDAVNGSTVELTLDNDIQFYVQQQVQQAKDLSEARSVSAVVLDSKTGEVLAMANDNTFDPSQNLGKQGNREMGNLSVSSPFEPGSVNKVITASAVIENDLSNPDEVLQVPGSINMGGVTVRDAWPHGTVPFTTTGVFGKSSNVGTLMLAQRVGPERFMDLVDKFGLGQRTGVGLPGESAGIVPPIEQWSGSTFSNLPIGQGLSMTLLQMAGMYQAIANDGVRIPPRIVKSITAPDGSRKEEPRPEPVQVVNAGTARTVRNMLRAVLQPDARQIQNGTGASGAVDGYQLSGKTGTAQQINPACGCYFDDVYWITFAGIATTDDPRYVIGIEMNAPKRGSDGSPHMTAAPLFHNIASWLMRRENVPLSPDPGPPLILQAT
Experiment: Steady-state kinetics with nitrocefin (Ki,app);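 on Ratio of fCss,avg to Ki,app, PBP B: Parenthesised value is the fCss,avg to Ki,app ratio where above 1 means target likely hit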
Type: biochemical
Details: in parentheses in Table 3
QUANTITY_KIND: Ratio of fCss,avg to Ki,app, PBP B
Number only, please.

Exam item: Which Ratio of fCss,avg to Ki,app, PBP B value is on record for CC1=C[C@@H]2CN(C(=O)N2OS(=O)(=O)O)[C@@H]1C(N)=O [Durlobactam, durlobactam] ?
Marked response: 1

Exam item: Which Ratio of fCss,avg to Ki,app, PBP B value is on record for CCO/N=C(\C(=O)N[C@@H]1C(=O)N2C(C(=O)[O-])=C(Sc3nc(-c4cc[n+](C)cc4)cs3)CS[C@H]12)c1nsc(N)n1 [Ceftaroline, ceftaroline] ?
Marked response: 5

Exam item: Which Ratio of fCss,avg to Ki,app, PBP B value is on record for C[C@@H](O)[C@H]1C(=O)N2C(C(=O)O)=C(SC3CN(C4=NCCS4)C3)[C@H](C)[C@H]12 [Tebipenem, tebipenem] ?
Marked response: 243

Exam item: Which Ratio of fCss,avg to Ki,app, PBP B value is on record for NC(=O)[C@@H]1CC[C@@H]2CN1C(=O)N2OS(=O)(=O)O [Avibactam, avibactam] ?
Marked response: 0.6

Exam item: Which Ratio of fCss,avg to Ki,app, PBP B value is on record for C[C@@H](O)[C@H]1C(=O)N2C(C(=O)O)=C(S[C@H]3CC[S@@+]([O-])C3)S[C@H]12 [Sulopenem, sulopenem] ?
Marked response: 0.7

* * *

Target: PBP B (Mycobacterium abscessus, UniProt B1MP31)
Experiment: Steady-state kinetics with nitrocefin (Ki,app)
Format: biochemical
QUANTITY_KIND: pKi
Quick note: pKi means taking -log10 of the concentration in moles per liter.

Exam item: Which pKi value is on record for CC1(C)S[C@@H]2[C@H](NC(=O)[C@H](N)c3ccc(O)cc3)C(=O)N2[C@H]1C(=O)O [Amoxicillin, amoxicillin] ?
Marked response: 5.13

Exam item: Which pKi value is on record for CC1(C)[C@H](C(=O)O)N2C(=O)C[C@H]2S1(=O)=O [Sulbactam, sulbactam] ?
Marked response: 4.25

Exam item: Which pKi value is on record for CCO/N=C(\C(=O)N[C@@H]1C(=O)N2C(C(=O)[O-])=C(Sc3nc(-c4cc[n+](C)cc4)cs3)CS[C@H]12)c1nsc(N)n1 [Ceftaroline, ceftaroline] ?
Marked response: 5.64

* * *

Give measured Observed MW (+ change in mw), LDT3 (44,795) for each item. Keep answers brief.
Target: LDT3 (Mycobacterium abscessus, UniProt B1MHQ4)
Sequence (B1MHQ4 entry or part of it): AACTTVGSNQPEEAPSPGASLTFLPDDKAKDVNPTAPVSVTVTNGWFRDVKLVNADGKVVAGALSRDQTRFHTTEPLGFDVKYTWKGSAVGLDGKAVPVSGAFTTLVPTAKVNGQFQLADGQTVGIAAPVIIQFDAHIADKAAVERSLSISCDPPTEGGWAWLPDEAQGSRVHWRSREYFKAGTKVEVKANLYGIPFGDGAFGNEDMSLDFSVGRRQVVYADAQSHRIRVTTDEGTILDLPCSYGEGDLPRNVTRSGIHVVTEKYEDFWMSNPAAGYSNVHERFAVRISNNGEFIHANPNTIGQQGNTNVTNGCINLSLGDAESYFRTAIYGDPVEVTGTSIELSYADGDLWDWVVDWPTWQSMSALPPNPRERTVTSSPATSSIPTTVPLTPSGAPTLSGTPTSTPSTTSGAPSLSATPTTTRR
Experiment: Mass spectrometry of covalent adduct formation
Format: binding
Details: protein:drug 1:20, 2 h; mass accuracy ±5 Da; (−) = no change

Exam item: Param readout= Observed MW (+ change in mw), LDT3 (44,795); system= LDT3 (Mycobacterium abscessus, UniProt B1MHQ4); entry= CCO/N=C(\C(=O)N[C@@H]1C(=O)N2C(C(=O)[O-])=C(Sc3nc(-c4cc[n+](C)cc4)cs3)CS[C@H]12)c1nsc(N)n1 [Ceftaroline, ceftaroline] ; returns value.
Marked response: 44,794 (−) Da

Exam item: Param readout= Observed MW (+ change in mw), LDT3 (44,795); system= LDT3 (Mycobacterium abscessus, UniProt B1MHQ4); entry= CC1=C[C@@H]2CN(C(=O)N2OS(=O)(=O)O)[C@@H]1C(N)=O [Durlobactam, durlobactam] ; returns value.
Marked response: 44,794 (−) Da

Exam item: Param readout= Observed MW (+ change in mw), LDT3 (44,795); system= LDT3 (Mycobacterium abscessus, UniProt B1MHQ4); entry= CO/N=C(\C(=O)N[C@@H]1C(=O)N2C(C(=O)O)=C(COC(N)=O)CS[C@H]12)c1ccco1 [Cefuroxime, cefuroxime] ; returns value.
Marked response: 44,794 (−) Da

Exam item: Param readout= Observed MW (+ change in mw), LDT3 (44,795); system= LDT3 (Mycobacterium abscessus, UniProt B1MHQ4); entry= CC1(C)S[C@@H]2[C@H](NC(=O)[C@H](N)c3ccc(O)cc3)C(=O)N2[C@H]1C(=O)O [Amoxicillin, amoxicillin] ; returns value.
Marked response: 44,794 (−) Da

Exam item: Param readout= Observed MW (+ change in mw), LDT3 (44,795); system= LDT3 (Mycobacterium abscessus, UniProt B1MHQ4); entry= C[C@@H](O)[C@H]1C(=O)N2C(C(=O)O)=C(SCCN=CN)C[C@H]12 [Imipenem, imipenem] ; returns value.
Marked response: 44,794 (−) Da

Exam item: Param readout= Observed MW (+ change in mw), LDT3 (44,795); system= LDT3 (Mycobacterium abscessus, UniProt B1MHQ4); entry= C[C@@H](O)[C@H]1C(=O)N2C(C(=O)O)=C(S[C@H]3CC[S@@+]([O-])C3)S[C@H]12 [Sulopenem, sulopenem] ; returns value.
Marked response: 45,143 (+349) Da

Exam item: Param readout= Observed MW (+ change in mw), LDT3 (44,795); system= LDT3 (Mycobacterium abscessus, UniProt B1MHQ4); entry= NC(=O)[C@@H]1CC[C@@H]2CN1C(=O)N2OS(=O)(=O)O [Avibactam, avibactam] ; returns value.
Marked response: 44,794 (−) Da

Exam item: Param readout= Observed MW (+ change in mw), LDT3 (44,795); system= LDT3 (Mycobacterium abscessus, UniProt B1MHQ4); entry= C[C@@H](O)[C@H]1C(=O)N2C(C(=O)O)=C(SC3CN(C4=NCCS4)C3)[C@H](C)[C@H]12 [Tebipenem, tebipenem] ; returns value.
Marked response: 44,794 (−) Da

* * *

Target: PBP B (Mycobacterium abscessus)
Experiment: Mass spectrometry of covalent adduct formation
Assay type: binding
Details: protein:drug 1:20, 2 h; mass accuracy ±5 Da; (−) = no change
QUANTITY_KIND: Observed MW (+ change in mw), PBP B (62,915)

Exam item: Which Observed MW (+ change in mw), PBP B (62,915) value is on record for CC1(C)S[C@@H]2[C@H](NC(=O)[C@H](N)c3ccc(O)cc3)C(=O)N2[C@H]1C(=O)O [Amoxicillin, amoxicillin] ?
Marked response: 63,280 (+365) Da

Exam item: Which Observed MW (+ change in mw), PBP B (62,915) value is on record for NC(=O)[C@@H]1CC[C@@H]2CN1C(=O)N2OS(=O)(=O)O [Avibactam, avibactam] ?
Marked response: 63,180 (+265) Da

Exam item: Which Observed MW (+ change in mw), PBP B (62,915) value is on record for CC1=C[C@@H]2CN(C(=O)N2OS(=O)(=O)O)[C@@H]1C(N)=O [Durlobactam, durlobactam] ?
Marked response: 63192 (+277) Da

Exam item: Which Observed MW (+ change in mw), PBP B (62,915) value is on record for C[C@@H](O)[C@H]1C(=O)N2C(C(=O)O)=C(SCCN=CN)C[C@H]12 [Imipenem, imipenem] ?
Marked response: 63,215 (+300) Da

Exam item: Which Observed MW (+ change in mw), PBP B (62,915) value is on record for CO/N=C(\C(=O)N[C@@H]1C(=O)N2C(C(=O)O)=C(COC(N)=O)CS[C@H]12)c1ccco1 [Cefuroxime, cefuroxime] ?
Marked response: 63,279 (+364) Da

Exam item: Which Observed MW (+ change in mw), PBP B (62,915) value is on record for C[C@@H](O)[C@H]1C(=O)N2C(C(=O)O)=C(S[C@H]3CC[S@@+]([O-])C3)S[C@H]12 [Sulopenem, sulopenem] ?
Marked response: 63,264 (+349) Da

* * *

Give measured Observed MW (+ change in mw), LDT2 (39,216) for each item. Keep answers brief.
Biological target: LDT2 (Mycobacterium abscessus)
Sequence (B1MMQ4 entry or part of it): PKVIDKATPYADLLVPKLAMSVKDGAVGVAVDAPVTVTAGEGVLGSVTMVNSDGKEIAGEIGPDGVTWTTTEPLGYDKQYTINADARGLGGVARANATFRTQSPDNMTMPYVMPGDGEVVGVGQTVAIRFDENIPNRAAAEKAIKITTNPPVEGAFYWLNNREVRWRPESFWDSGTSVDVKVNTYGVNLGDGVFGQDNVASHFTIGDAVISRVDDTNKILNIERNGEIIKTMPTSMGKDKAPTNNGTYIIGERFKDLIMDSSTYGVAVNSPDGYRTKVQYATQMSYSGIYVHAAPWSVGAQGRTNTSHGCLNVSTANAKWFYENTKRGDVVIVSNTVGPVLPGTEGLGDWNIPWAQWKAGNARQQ
Assay: Mass spectrometry of covalent adduct formation
Type: binding
Settings: protein:drug 1:20, 2 h; mass accuracy ±5 Da; (−) = no change

Exam item: Which Observed MW (+ change in mw), LDT2 (39,216) value is on record for C[C@@H](O)[C@H]1C(=O)N2C(C(=O)O)=C(SC3CN(C4=NCCS4)C3)[C@H](C)[C@H]12 [Tebipenem, tebipenem] ?
Marked response: 39,602 (+386) Da

Exam item: Which Observed MW (+ change in mw), LDT2 (39,216) value is on record for CO/N=C(\C(=O)N[C@@H]1C(=O)N2C(C(=O)O)=C(COC(N)=O)CS[C@H]12)c1ccco1 [Cefuroxime, cefuroxime] ?
Marked response: 39,597 (+381) Da

Exam item: Which Observed MW (+ change in mw), LDT2 (39,216) value is on record for C[C@@H](O)[C@H]1C(=O)N2C(C(=O)O)=C(S[C@H]3CC[S@@+]([O-])C3)S[C@H]12 [Sulopenem, sulopenem] ?
Marked response: 39,298 (+86) Da

Exam item: Which Observed MW (+ change in mw), LDT2 (39,216) value is on record for C[C@@H](O)[C@H]1C(=O)N2C(C(=O)O)=C(SCCN=CN)C[C@H]12 [Imipenem, imipenem] ?
Marked response: 39,515 (+299) Da

Exam item: Which Observed MW (+ change in mw), LDT2 (39,216) value is on record for CC1=C[C@@H]2CN(C(=O)N2OS(=O)(=O)O)[C@@H]1C(N)=O [Durlobactam, durlobactam] ?
Marked response: 39,492 (+278) Da

Exam item: Which Observed MW (+ change in mw), LDT2 (39,216) value is on record for NC(=O)[C@@H]1CC[C@@H]2CN1C(=O)N2OS(=O)(=O)O [Avibactam, avibactam] ?
Marked response: 39,482 (+266) Da

Reference source for all entries: paper PMC11823594
